pKd tested on JMJD3 (Homo sapiens, UniProt O15054): recorded values
Sequence (O15054 whole entry, species assumed): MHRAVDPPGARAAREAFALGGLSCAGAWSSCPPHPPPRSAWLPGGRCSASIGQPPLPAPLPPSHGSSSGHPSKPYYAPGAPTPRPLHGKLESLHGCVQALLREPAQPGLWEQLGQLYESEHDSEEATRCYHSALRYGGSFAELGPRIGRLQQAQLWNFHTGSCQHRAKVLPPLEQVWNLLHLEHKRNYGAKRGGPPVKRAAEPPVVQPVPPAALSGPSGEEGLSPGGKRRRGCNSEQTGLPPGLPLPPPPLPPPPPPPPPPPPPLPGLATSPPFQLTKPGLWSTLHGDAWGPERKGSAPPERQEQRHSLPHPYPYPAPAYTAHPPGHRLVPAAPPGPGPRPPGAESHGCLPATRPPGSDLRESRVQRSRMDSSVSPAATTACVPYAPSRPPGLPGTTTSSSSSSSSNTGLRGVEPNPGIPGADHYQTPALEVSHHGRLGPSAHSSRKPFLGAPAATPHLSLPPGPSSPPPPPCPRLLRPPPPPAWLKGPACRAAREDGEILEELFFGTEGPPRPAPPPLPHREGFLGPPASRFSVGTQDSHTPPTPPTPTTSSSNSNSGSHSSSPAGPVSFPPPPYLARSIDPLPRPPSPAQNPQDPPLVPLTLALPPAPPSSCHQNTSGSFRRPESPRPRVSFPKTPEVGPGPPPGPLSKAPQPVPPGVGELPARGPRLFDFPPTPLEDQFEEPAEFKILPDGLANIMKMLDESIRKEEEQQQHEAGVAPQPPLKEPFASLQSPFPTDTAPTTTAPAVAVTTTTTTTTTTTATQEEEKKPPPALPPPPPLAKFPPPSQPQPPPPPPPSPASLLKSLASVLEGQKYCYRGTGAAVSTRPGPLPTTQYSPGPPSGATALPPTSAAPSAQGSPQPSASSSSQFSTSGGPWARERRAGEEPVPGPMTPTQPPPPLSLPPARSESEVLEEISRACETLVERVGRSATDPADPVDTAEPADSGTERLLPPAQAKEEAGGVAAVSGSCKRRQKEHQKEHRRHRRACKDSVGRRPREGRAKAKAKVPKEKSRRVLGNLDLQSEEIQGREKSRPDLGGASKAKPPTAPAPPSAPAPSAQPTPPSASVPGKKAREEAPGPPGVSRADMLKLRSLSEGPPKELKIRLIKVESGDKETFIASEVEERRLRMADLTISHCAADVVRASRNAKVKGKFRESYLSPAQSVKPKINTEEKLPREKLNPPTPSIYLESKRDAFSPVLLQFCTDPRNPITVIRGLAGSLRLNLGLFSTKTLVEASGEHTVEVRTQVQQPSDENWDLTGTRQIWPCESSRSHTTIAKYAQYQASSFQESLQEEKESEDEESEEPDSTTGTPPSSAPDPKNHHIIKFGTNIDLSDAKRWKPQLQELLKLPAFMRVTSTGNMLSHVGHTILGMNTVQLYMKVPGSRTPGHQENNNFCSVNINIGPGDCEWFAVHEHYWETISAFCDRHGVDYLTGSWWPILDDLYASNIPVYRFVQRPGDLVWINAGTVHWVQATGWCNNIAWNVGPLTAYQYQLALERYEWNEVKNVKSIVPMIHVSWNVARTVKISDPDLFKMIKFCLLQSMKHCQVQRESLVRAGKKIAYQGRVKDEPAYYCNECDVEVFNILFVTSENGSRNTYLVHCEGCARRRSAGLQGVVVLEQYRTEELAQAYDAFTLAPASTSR
pKd: −log10 of the molar value.

// known answers, use as guide
[[record]]
smiles_text = "c1ccc2c(c1)ccn2-c1nc(OC2CCCC2)nc(-n2cccn2)n1"
target_or_test_system = "JMJD3 (Homo sapiens, UniProt O15054)"
test_result = "> 7.00"

[[record]]
smiles_text = "c1ccc2c(c1)ccn2-c1nc(N2CCOCC2)nc(-n2cccn2)n1"
target_or_test_system = "JMJD3 (Homo sapiens, UniProt O15054)"
test_result = "6.30 to 7.00"

[[record]]
smiles_text = "COCCCNc1nc(-n2cccn2)nc(-n2ccc3ccccc32)n1"
target_or_test_system = "JMJD3 (Homo sapiens, UniProt O15054)"
test_result = "6.30 to 7.00"


Inquiry: GET pKd where system = JMJD3 (Homo sapiens, UniProt O15054) and item = c1ccc2c(c1)ccn2-c1nc(N2CCNC3(COC3)C2)nc(-n2cccn2)n1
Reply text: > 7.00

Inquiry: GET pKd | system: JMJD3 (Homo sapiens, UniProt O15054) | item: COCCNc1nc(-n2cccn2)nc(-n2ccc3ccccc32)n1
Reply text: > 7.00

Inquiry: Give measured pKd for c1ccc2c(c1)ccn2-c1nc(N2CCNCC2)nc(-n2cccn2)n1 (JMJD3 (Homo sapiens, UniProt O15054)).
Reply text: 6.30 to 7.00

Inquiry: Give reported pKd for Fc1cc(F)cc(-c2nc(N3CCOCC3)nc(-n3cccn3)n2)c1 (JMJD3 (Homo sapiens, UniProt O15054))
Reply text: 6.30 to 7.00

Inquiry: System JMJD3 (Homo sapiens, UniProt O15054). Read-out pKd. Item CCOC(=O)CCNc1nc(-n2cccn2)nc(-n2ccc3ccccc32)n1 . Report value.
Reply text: > 7.00

Inquiry: # lookup: JMJD3 (Homo sapiens, UniProt O15054) pKd, key = Fc1cc(F)cc(-c2nc(N3CCC3)nc(-n3cccn3)n2)c1
Reply text: > 7.00

// provenance: patent US20250188062A1
